# assay.notes: Solubility in DMSO
# Assay type: physicochemical
# condition.parameters: organic solvent or mixture; in 100% DMSO; read-out: Maximal soluble concentration
readout.label: solubility (µM)
Unit µM implied. Number only.

So what does the record say about solubility for O=c1nc(/C=C/c2cccnc2)n(Cc2ccc(Br)cc2)c2ccccc12 [p-Br-B02-iso] ?
500
